# testedSystem: Human GLP-1 receptor stably expressing cells (hGLP-1R/CHO-K1 cells) (Homo sapiens, UniProt P43220)
# Construct: expressed in transfected cells
# Sequence (P43220 24-463): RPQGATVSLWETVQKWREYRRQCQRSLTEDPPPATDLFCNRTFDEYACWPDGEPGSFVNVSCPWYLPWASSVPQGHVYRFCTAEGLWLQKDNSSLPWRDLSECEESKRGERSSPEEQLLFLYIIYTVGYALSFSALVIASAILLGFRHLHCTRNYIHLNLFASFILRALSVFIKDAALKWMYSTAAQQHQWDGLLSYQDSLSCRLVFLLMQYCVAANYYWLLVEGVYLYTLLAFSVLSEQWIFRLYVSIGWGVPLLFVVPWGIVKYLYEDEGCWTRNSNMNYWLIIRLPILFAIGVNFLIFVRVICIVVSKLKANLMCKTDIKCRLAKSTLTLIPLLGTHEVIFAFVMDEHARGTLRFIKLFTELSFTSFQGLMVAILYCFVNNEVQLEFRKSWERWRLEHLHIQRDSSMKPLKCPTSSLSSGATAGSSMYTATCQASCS
# methodDescription: Measurement of GLP-1 receptor agonist activity (cAMP assay)
# Format: cell-based
# conditionSummary: CHO-K1, maximum effect; cAMP with 2 nM human GLP-1 (7-36) = 100%, DMSO only = 0%; read-out: Emax
# reported Emax; entries follow
Value expressed in %; do not type the unit.

The examples below pair each entry with its known result.
COc1cc(C(=O)O)cc2c1nc(CN1CCc3cc(C(F)F)c(OCc4ccc(F)cc4F)nc3[C@@H]1C)n2C[C@@H]1CCO1 [Compound I-131] :: 123
C[C@H]1c2nc(OCc3ccc(Cl)cc3Cl)c(C(F)F)cc2CCN1Cc1nc2ccc(C(=O)O)c(F)c2n1C[C@@H]1CCO1 [Compound I-122] :: 112

Could you share which Emax value was measured for C[C@H]1c2cc(OCc3c(F)cc(Cl)cc3F)c(C(F)F)cc2CCN1Cc1nc2ccc(C(=O)O)cc2n1C[C@@H]1CCO1 [Compound I-012] ?
108

Likewise for C[C@H]1c2nc(OCc3cc(F)c(Cl)cc3F)c(C(F)F)cc2CCN1Cc1nc2ccc(C(=O)O)c(F)c2n1C[C@@H]1CCO1 [Compound I-126] ?
111

Likewise for C[C@H]1c2nc(OCc3ccc(F)cc3)c(C(F)F)cc2CCN1Cc1nc2ccc(C(=O)O)c(F)c2n1C[C@@H]1CCO1 [Compound I-117] ?
118

Likewise for C[C@H]1c2nc(NCc3ccc(Cl)cn3)c(C(F)(F)F)cc2CCN1Cc1nc2c(Cl)cc(C(=O)O)cc2n1C[C@@H]1CCO1 [Compound I-197] ?
111

* * *

# testedSystem: Human GLP-1 receptor stably expressing cells (hGLP-1R/CHO-K1 cells) (Homo sapiens, UniProt P43220)
# Construct: expressed in transfected cells
# methodDescription: Measurement of GLP-1 receptor agonist activity (cAMP assay)
# Assay type: cell-based
# conditionSummary: CHO-K1, maximum effect; cAMP with 2 nM human GLP-1 (7-36) = 100%, DMSO only = 0%; read-out: Emax
# reported Emax; entries follow

The examples below pair each entry with its known result.
C[C@H]1c2cc(OCc3ccc(Cl)cc3)c(C(F)F)cc2CCN1Cc1nc2ccc(C(=O)O)cc2n1C[C@@H]1CCO1 [Compound I-004] :: 105%
COc1cc(C(=O)O)cc2c1nc(CN1CCc3cc(C(F)(F)F)c(NCc4ccc(C#N)cc4F)nc3[C@@H]1C)n2C[C@@H]1CCO1 [Compound I-195] :: 123%
C[C@H]1c2nc(OCc3c(F)cc(Cl)cc3F)c(C(F)F)cc2CCN1Cc1nc2ccc(C(=O)O)c(F)c2n1C[C@@H]1CCO1 [Compound I-124] :: 115%

Could you share which Emax value was measured for C[C@H]1c2nc(OCc3ccc(Cl)cc3Cl)c(Cl)cc2CCN1Cc1nc2ccc(C(=O)O)nc2n1C[C@@H]1CCO1 [Compound I-030] ?
123%

Likewise for O=C(O)c1ccc2nc(CC3CCc4cc(C(F)(F)F)c(OCc5ccc(Cl)cc5F)cc4C3)n(C[C@@H]3CCO3)c2c1 (stereo partly shown) [Compound I-077] ?
92.3%

Likewise for C[C@H]1c2c(cc(C(F)(F)F)c3c2O[C@@](C)(c2ccc(Cl)cc2F)O3)CCN1Cc1nc2c(F)cc(C(=O)O)cc2n1C[C@@H]1CCO1 [Compound I-164] ?
108%

Likewise for COc1cc(C(=O)O)cc2c1nc(CN1CCc3cc(C(F)F)c(OCc4ccc(Cl)cc4Cl)nc3[C@@H]1C)n2C[C@@H]1CCO1 [Compound I-132] ?
127%

Likewise for C[C@H]1c2nc(OCc3ccccc3Cl)c(C#N)cc2CCN1Cc1nc2c(Cl)cc(C(=O)O)cc2n1C[C@@H]1CCO1 [Compound I-181] ?
120%

* * *

# testedSystem: Human GLP-1 receptor stably expressing cells (hGLP-1R/CHO-K1 cells) (Homo sapiens)
# methodDescription: Measurement of GLP-1 receptor agonist activity (cAMP assay)
# conditionSummary: increase in cAMP concentration in hGLP-1R/CHO-K1 cells, 37° C. 1 hour
quantity: pEC50
Formally, pEC50 is defined as -log10 of the concentration c, with c in mol/L.

C[C@H]1c2nc(OCc3ccc(F)cc3F)c(C(F)F)cc2CCN1Cc1nc2c(F)cc(C(=O)O)cc2n1C[C@@H]1CCO1 [Compound I-110] :: 10.15

Could you share which pEC50 value was measured for C[C@H]1c2nc(OCc3ccc(F)cc3F)c(C(F)F)cc2CCN1Cc1nc2ccc(C(=O)O)cc2n1C[C@@H]1CCO1 [Compound I-056] ?
9.45

Likewise for C[C@H]1c2nc(OCc3ccc(Cl)cc3F)c(C#N)cc2CCN1Cc1nc2c(Cl)cc(C(=O)O)cc2n1C[C@@H]1CCO1 [Compound I-184] ?
10.14

Likewise for C[C@H]1c2nc(NCc3ccc(Cl)cc3)c(C(F)(F)F)cc2CCN1Cc1nc2c(F)cc(C(=O)O)cc2n1C[C@@H]1CCO1 [Compound I-169] ?
9.72

Likewise for COc1cc(C(=O)O)cc2c1nc(CN1CCc3cc(C(F)(F)F)c4c(c3[C@@H]1C)O[C@@](C)(c1ccc(Cl)cn1)O4)n2C[C@@H]1CCO1 [Compound I-159] ?
9.81

Likewise for C[C@H]1c2nc(NCc3ccc(Cl)cn3)c(C(F)(F)F)cc2CCN1Cc1nc2c(F)cc(C(=O)O)cc2n1C[C@@H]1CCO1 [Compound I-196] ?
9.21

* * *

# testedSystem: Human GLP-1 receptor stably expressing cells (hGLP-1R/CHO-K1 cells) (Homo sapiens)
# Construct: expressed in transfected cells
# methodDescription: Measurement of GLP-1 receptor agonist activity (cAMP assay)
# Type: cell-based
# conditionSummary: increase in cAMP concentration in hGLP-1R/CHO-K1 cells, 37° C. 1 hour
pEC50: −log10 of the molar value.
Please mark 1 if the recorded pEC50 is equal to or greater than 10, and 0 if it falls below.

C[C@H]1c2c(cc(C(F)(F)F)c3c2OC(C)(c2ccc(Cl)cc2F)O3)CCN1Cc1nc2ccc(C(=O)O)cc2n1C[C@@H]1CCO1 (mixture of isomers) :: 0

Given C[C@H]1c2nc(OCc3ccc(Cl)cn3)c(C(F)F)cc2CCN1Cc1nc2ccc(C(=O)O)cc2n1C[C@@H]1CCO1 , state whether its pEC50 is at least 10.
0

Likewise for C[C@H]1c2nc(OCc3c(F)cc(Cl)cc3F)c(C(F)F)cc2CCN1Cc1nc2ccc(C(=O)O)c(F)c2n1C[C@@H]1CCO1 ?
1

Likewise for C[C@H]1c2nc(OCc3ccc(Cl)cc3F)c(C(F)(F)F)cc2CCN1Cc1nc2sc(C(=O)O)cc2n1C[C@@H]1CCO1 ?
0

Likewise for C[C@H]1c2c(cc(C(F)(F)F)c3c2O[C@@](C)(c2ccc(Cl)cn2)O3)CCN1Cc1nc2c(Cl)cc(C(=O)O)cc2n1C[C@@H]1CCO1 ?
0

* * *

# reported Emax; entries follow
# testedSystem: Human GLP-1 receptor stably expressing cells (hGLP-1R/CHO-K1 cells) (Homo sapiens)
# Construct: expressed in transfected cells
# methodDescription: Measurement of GLP-1 receptor agonist activity (cAMP assay)
# Type: cell-based
# conditionSummary: CHO-K1, maximum effect; cAMP with 2 nM human GLP-1 (7-36) = 100%, DMSO only = 0%; read-out: Emax
Value expressed in %; do not type the unit.

The examples below pair each entry with its known result.
C[C@H]1c2c(ccc3c2OC(C)(c2ccc(Cl)cn2)O3)CCN1Cc1nc2ccc(C(=O)O)cc2n1C[C@@H]1CCO1 (stereo partly drawn) :: 96.3
C[C@H]1c2nc(OCc3ccc(Cl)cc3)c(C(F)F)cc2CCN1Cc1nc2ccc(C(=O)O)cc2n1C[C@@H]1CCO1 :: 115
COc1cc(C(=O)O)cc2c1nc(CN1CCc3cc(C(F)(F)F)c(NCc4cc(F)c(Cl)cc4F)nc3[C@@H]1C)n2C[C@@H]1CCO1 :: 113

Could you share which Emax value was measured for O=C(O)c1ccc2nc(Cc3ccc4nc(C(F)(F)F)c(OCc5ccc(Cl)cc5F)nc4c3F)n(C[C@@H]3CCO3)c2c1F ?
100

Likewise for C[C@H]1c2nc(OCc3ccc(Cl)cn3)c(Cl)cc2CCN1Cc1nc2c(F)cc(C(=O)O)cc2n1C[C@@H]1CCO1 ?
96.7

Likewise for Cc1nc(COc2nc3c(cc2C(F)(F)F)CCN(Cc2nc4ccc(C(=O)O)cc4n2C[C@@H]2CCO2)[C@H]3C)no1 ?
66.3

* * *

# testedSystem: Human GLP-1 receptor stably expressing cells (hGLP-1R/CHO-K1 cells) (Homo sapiens, UniProt P43220)
# methodDescription: Measurement of GLP-1 receptor agonist activity (cAMP assay)
# conditionSummary: increase in cAMP concentration in hGLP-1R/CHO-K1 cells, 37° C. 1 hour
quantity: pEC50
Formally, pEC50 is defined as -log10 of the concentration c, with c in mol/L.

The examples below pair each entry with its known result.
C[C@H]1c2nc(OCc3ccc(C#N)cc3F)c(Cl)cc2CCN1Cc1nc2ccc(C(=O)O)cc2n1C[C@@H]1CCO1 :: 9.90
C[C@H]1c2nc(SCc3ccc(Cl)cc3F)c(C(F)(F)F)cc2CCN1Cc1nc2ccc(C(=O)O)cc2n1C[C@@H]1CCO1 :: 9.61
C[C@H]1c2cc(OCc3ccc(Cl)cc3Cl)c(C(F)F)cc2CCN1Cc1nc2ccc(C(=O)O)cc2n1C[C@@H]1CCO1 :: 9.01
C[C@H]1c2nc(OCc3ccc(C#N)cc3F)c(C(F)F)cc2CCN1Cc1nc2c(F)cc(C(=O)O)cc2n1C[C@@H]1CCO1 :: 10.37

Please examine the following record next.
Could you share which pEC50 value was measured for C[C@H]1c2nc(OCc3ccc(Cl)cc3)c(C(F)F)cc2CCN1Cc1nc2ccc(C(=O)O)c(F)c2n1C[C@@H]1CCO1 ?
9.98
